Where do these numbers come from? They come from patent US11834453B2.

IC50 values by entry
Biological target: EGFR (Homo sapiens (Human), UniProt P00533)
Sequence (P00533 25-1210): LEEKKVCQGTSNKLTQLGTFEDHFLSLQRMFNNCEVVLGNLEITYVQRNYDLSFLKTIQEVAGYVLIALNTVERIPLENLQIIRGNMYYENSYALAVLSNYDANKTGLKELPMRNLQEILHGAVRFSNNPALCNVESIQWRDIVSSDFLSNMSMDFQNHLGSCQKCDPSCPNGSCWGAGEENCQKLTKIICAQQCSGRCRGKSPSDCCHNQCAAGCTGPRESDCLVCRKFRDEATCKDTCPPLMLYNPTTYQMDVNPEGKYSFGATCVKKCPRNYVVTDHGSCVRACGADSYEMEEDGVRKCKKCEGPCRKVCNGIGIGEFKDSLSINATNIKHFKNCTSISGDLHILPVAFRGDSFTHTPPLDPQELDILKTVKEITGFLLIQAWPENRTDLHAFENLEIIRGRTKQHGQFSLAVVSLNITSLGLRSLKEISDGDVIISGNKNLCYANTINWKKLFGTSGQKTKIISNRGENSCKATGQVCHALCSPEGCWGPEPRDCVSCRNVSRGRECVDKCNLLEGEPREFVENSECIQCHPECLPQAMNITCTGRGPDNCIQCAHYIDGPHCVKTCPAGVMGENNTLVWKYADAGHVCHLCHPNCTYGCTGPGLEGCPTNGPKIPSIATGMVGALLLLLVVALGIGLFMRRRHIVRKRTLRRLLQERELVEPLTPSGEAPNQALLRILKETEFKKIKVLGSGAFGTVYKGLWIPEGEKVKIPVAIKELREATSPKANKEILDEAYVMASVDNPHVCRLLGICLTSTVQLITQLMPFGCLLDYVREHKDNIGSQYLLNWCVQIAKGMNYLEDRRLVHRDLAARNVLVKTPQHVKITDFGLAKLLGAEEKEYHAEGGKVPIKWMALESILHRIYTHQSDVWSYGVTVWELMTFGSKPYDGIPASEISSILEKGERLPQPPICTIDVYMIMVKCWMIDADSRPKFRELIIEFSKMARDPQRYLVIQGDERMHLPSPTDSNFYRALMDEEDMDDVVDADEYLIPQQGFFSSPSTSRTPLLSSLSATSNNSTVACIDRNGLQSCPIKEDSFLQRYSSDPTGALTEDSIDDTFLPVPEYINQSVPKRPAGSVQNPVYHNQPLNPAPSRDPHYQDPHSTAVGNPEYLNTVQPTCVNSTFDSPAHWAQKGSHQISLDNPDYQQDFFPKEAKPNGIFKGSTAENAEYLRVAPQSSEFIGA
measurement.kind: IC50

1) Cc1cc(Nc2ncnc3cnc(N4CC[C@H](C(F)F)C4)nc23)ccc1Oc1ccc2c(c1)ncn2C [Example 252]    ≥ 10 µM
2) Clc1cc(Nc2ncnc3cnc(N4C[C@@H]5[C@H](C4)[C@@H]4CC[C@H]5O4)nc23)ccc1Oc1ccn2ncnc2c1 [Example 399]    ≥ 10 µM
3) Cc1cc(Nc2ncnc3cnc(N4CCN(C)C4=O)nc23)ccc1Oc1ccc2c(c1)ncn2C [Example 28]    ≥ 10 µM
4) CCON1CCN(c2ncc3ncnc(Nc4ccc(Oc5ccc6c(c5)ncn6C)c(C)c4)c3n2)CC1 [Example 483]    ≥ 10 µM
5) Cc1cc(Nc2ncnc3cnc(N4CC[C@H]4C(C)(C)O)nc23)ccc1Oc1ccc2c(c1)ncn2C [Example 407]    ≥ 10 µM
6) Cc1cc(Nc2ncnc3cnc(N4CC5(CC5)CS4(=O)=O)nc23)ccc1Oc1ccc2c(c1)ncn2C [Example 264]    ≥ 10 µM
7) Cc1c(Oc2ccn3ncnc3c2)ccc(Nc2ncnc3cnc(N(C)[C@H]4CN(C)C[C@H]4F)nc23)c1F [Example 320]    2.34 µM
8) CSc1ncc2ncnc(Nc3ccc(Oc4ccc5c(c4)ncn5C)c(C)c3)c2n1 [Example 1]    ≥ 10 µM
9) Cc1cc(Nc2ncnc3cnc(N4CCOC(C(F)F)C4)nc23)ccc1Oc1ccc2c(c1)ncn2C (stereo not drawn) [Example 181]    ≥ 10 µM
10) CN(c1ncc2ncnc(Nc3ccc(Oc4ccn5ncnc5c4)c(Cl)c3)c2n1)C1COC1 [Example 424]    3.93 µM
11) Cc1c(Oc2ccc3c(c2)ncn3C)ccc(Nc2ncnc3cnc(N4C[C@H]5C[C@@H]4CO5)nc23)c1F [Example 457]    8.24 µM
12) Cc1cc(Nc2ncnc3cnc(N4CCC4C(F)(F)F)nc23)ccc1Oc1ccc2c(c1)ncn2C (stereo not drawn) [Example 238]    ≥ 10 µM
13) Cc1cc(Nc2ncnc3cnc(-c4ccncc4)nc23)ccc1Oc1ccc2c(c1)ncn2C [Example 47, bis(2,2,2-trifluoroacetate)]    ≥ 10 µM
14) Cc1cc(Nc2ncnc3cnc(N4CCN[C@H](C)C4)nc23)ccc1Oc1ccc2c(c1)ncn2C [Example 277]    ≥ 10 µM
15) Cc1c(Oc2ccn3ncnc3c2)ccc(Nc2ncnc3cnc(N4CCC(C)(O)CC4)nc23)c1F [Example 304]    2.84 µM
16) Cc1cc(Nc2ncnc3cnc(N4CCCO4)nc23)ccc1Oc1cc(F)c2c(c1)ncn2C [Example 155]    4.28 µM
17) Cc1cc(Nc2ncnc3cnc(N4C[C@@H](C)[C@H](O)C4)nc23)ccc1Oc1ccc2c(c1)ncn2C [Example 167]    9.05 µM
18) COC[C@@H]1CCN1c1ncc2ncnc(Nc3ccc(Oc4ccn5ncnc5c4)c(Cl)c3)c2n1 [Example 328]    ≥ 10 µM
19) Cc1cc(Nc2ncnc3cnc(N4CCOCC4)nc23)ccc1Oc1ccc2scnc2c1.O=C(O)C(F)(F)F [Example 82, 2,2,2-trifluoroacetate]    1.22 µM
20) Clc1cc(Nc2ncnc3cnc(N4C[C@H]5CC[C@@H]4CO5)nc23)ccc1Oc1ccn2ncnc2c1 [Example 389]    ≥ 10 µM
21) CSc1ncc2ncnc(Nc3ccc(Oc4ccc5conc5c4)c(C)c3)c2n1 [Example 10]    ≥ 10 µM
22) Clc1cc(Nc2ncnc3cnc(N4C[C@@H]5C[C@H]4CO5)nc23)ccc1Oc1ccn2ncnc2c1 [Example 426]    4.21 µM
23) Cc1cc(Nc2ncnc3cnc(N4CCC[C@@H]4C(F)(F)F)nc23)ccc1Oc1ccc2c(c1)ncn2C [Example 229]    ≥ 10 µM
24) Cc1cc(Nc2ncnc3cnc(N4C[C@H]5C[C@@H]4CO5)nc23)c(F)cc1Oc1ccc2c(c1)ncn2C [Example 481]    ≥ 10 µM
25) Cc1cc(Nc2ncnc3cnc(N4CC5COC(C5)C4)nc23)ccc1Oc1ccc2c(c1)ncn2C (stereo not drawn) [Example 67]    ≥ 10 µM
26) FC(F)(F)[C@H]1CN(c2ncc3ncnc(Nc4ccc(Oc5ccn6ncnc6c5)c(Cl)c4)c3n2)CCN1 [Example 429]    3.95 µM
27) Cc1cc(Nc2ncnc3cnc(N4C[C@@H](O)C(C)(C)C4)nc23)ccc1Oc1ccc2c(c1)ncn2C [Example 468]    ≥ 10 µM
28) Cc1cc(Nc2ncnc3cnc(N4CCC[C@@H]5COC[C@@H]54)nc23)ccc1Oc1ccc2c(c1)ncn2C [Example 432]    ≥ 10 µM
29) Cc1cc(Nc2ncnc3cnc(NC4(C)CC4)nc23)ccc1Oc1ccc2c(c1)ncn2C [Example 268]    ≥ 10 µM
30) Cc1cc(Nc2ncnc3cnc(O[C@H]4CCNC[C@H]4F)nc23)ccc1Oc1ccc2c(c1)ncn2C [Example 284]    ≥ 10 µM
